Data provenance: patent US20250120932A1

Assay: Pharmacokinetic study in cynomolgus monkeys after oral (nasogastric) gavage, sublingual and intravenous administration
Assay type: in vivo
Conditions: cynomolgus, cynomolgus monkey, plasma, intravenous, 2 mg/kg, Plasma Bumetanide Dibenzylamide concentration, Median, monkey, dose column 2 mg/kg (title 30 mg/kg), Third Formulation (Form 4), 0.08 h, N=4
Procedure: A pharmacokinetic study was done in cynomolgus monkeys following single oral (nasogastric) gavage, sublingual, and intravenous administration. […] Calibration curves, blanks, and analytical QCs were prepared in monkey plasma (K2EDTA). The extracts were evaporated to dryness, reconstituted, and then analyzed by LC-MS/MS. The calibration range was 0.250-250 ng/mL for both analytes. If the criteria for either the calibration curve or the analytical QCs were not met, the analytical run was rejected. […]
property.name: concentration at 0.08 h (ng/mL)

> print(dat)
                                   molecule            property.name  measured.value
1  CCCCNc1cc(C(=O)N(Cc2ccccc2)Cc2ccccc2)cc(S(N)(=O)=O)c1Oc1ccccc1 [Bumetanide Dibenzylamide]  concentration at 0.08 h            1370

====

experiment: in vitro; conditions: human, Caco-2, pH 7.4, Mean Papp (10^−6 cm/s) B to A
property.name: Papp B→A at 2 h, 10 μM

compound	measured.value
C[C@H]1O[C@@H](O[C@H]2[C@@H](O)C[C@H](O[C@H]3[C@@H](O)C[C@H](O[C@H]4CC[C@@]5(C)[C@H](CC[C@@H]6[C@@H]5C[C@@H](O)[C@]5(C)[C@@H](C7=CC(=O)OC7)CC[C@]65O)C4)O[C@@H]3C)O[C@@H]2C)C[C@H](O)[C@@H]1O [Digoxin, reference compound]	13.1 ×10⁻⁶ cm/s

====

assay: Pharmacokinetic study in cynomolgus monkeys after oral (nasogastric) gavage, sublingual and intravenous administration; assay type: in vivo; settings: both sexes, cynomolgus monkey, plasma, oral, 30 mg/kg, Plasma Bumetanide Dibenzylamide concentration, Median, monkey, NG 30 mg/kg, Second Formulation (Form 3), 0.00 h, N=4
property.name: concentration at 0 h (ng/mL)

> print(dat)
                                   compound  measured.value
1  CCCCNc1cc(C(=O)N(Cc2ccccc2)Cc2ccccc2)cc(S(N)(=O)=O)c1Oc1ccccc1 [Bumetanide Dibenzylamide]               0

====

test: Pharmacokinetic study in cynomolgus monkeys after oral (nasogastric) gavage, sublingual and intravenous administration; format: in vivo; conditions: cynomolgus monkey, plasma, intravenous, 2 mg/kg, Plasma Bumetanide Dibenzylamide concentration, Mean, monkey, dose column 2 mg/kg (title 30 mg/kg), Third Formulation (Form 4), 1.00 h, N=4
property.name: concentration at 1 h

> print(dat)
                                   compound  measured.value
1  CCCCNc1cc(C(=O)N(Cc2ccccc2)Cc2ccccc2)cc(S(N)(=O)=O)c1Oc1ccccc1 [Bumetanide Dibenzylamide]       483 ng/mL

====

assay: Pharmacokinetic study in cynomolgus monkeys after oral (nasogastric) gavage, sublingual and intravenous administration; format: in vivo; details: cynomolgus monkey, plasma, other: sublingual, 5 mg/kg, Plasma Bumetanide Dibenzylamide concentration, Median, monkey, SL, dose column 5 mg/kg (title 30 mg/kg), Fourth Formulation (Form 2), 4.0 h, N=4
property.name: concentration at 4 h (ng/mL)

> print(dat)
                                   compound  measured.value
1  CCCCNc1cc(C(=O)N(Cc2ccccc2)Cc2ccccc2)cc(S(N)(=O)=O)c1Oc1ccccc1 [Bumetanide Dibenzylamide]               0

====

experiment: Pharmacokinetic study in cynomolgus monkeys after oral (nasogastric) gavage, sublingual and intravenous administration; format: in vivo; conditions: cynomolgus monkey, plasma, intravenous, 2 mg/kg, Plasma Bumetanide Dibenzylamide concentration, Mean, monkey, dose column 2 mg/kg (title 30 mg/kg), Third Formulation (Form 4), 2.00 h, N=4
property.name: concentration at 2 h (ng/mL)

> print(dat)
                                   compound  measured.value
1  CCCCNc1cc(C(=O)N(Cc2ccccc2)Cc2ccccc2)cc(S(N)(=O)=O)c1Oc1ccccc1 [Bumetanide Dibenzylamide]             285

====

assay: Pharmacokinetic study in cynomolgus monkeys after oral (nasogastric) gavage, sublingual and intravenous administration; type: in vivo; details: cynomolgus monkey, plasma, other: sublingual, 5 mg/kg, Plasma Bumetanide Dibenzylamide concentration, monkey, SL, dose column 5 mg/kg (title 30 mg/kg), Fourth Formulation (Form 2), 1.0 h, individual animals
property.name: concentration at 1 h (ng/mL)

> print(dat)
                                   compound  value.units  measured.value
1  CCCCNc1cc(C(=O)N(Cc2ccccc2)Cc2ccccc2)cc(S(N)(=O)=O)c1Oc1ccccc1 [Bumetanide Dibenzylamide]        ng/mL               0

====

Assay: Pharmacokinetic study in cynomolgus monkeys after oral (nasogastric) gavage, sublingual and intravenous administration
Type: in vivo
Details: cynomolgus monkey, plasma, intravenous, 2 mg/kg, Plasma Bumetanide Dibenzylamide concentration, Mean, monkey, dose column 2 mg/kg (title 30 mg/kg), Third Formulation (Form 4), 8.00 h, N=4
Procedure: A pharmacokinetic study was done in cynomolgus monkeys following single oral (nasogastric) gavage, sublingual, and intravenous administration. […] Calibration curves, blanks, and analytical QCs were prepared in monkey plasma (K2EDTA). The extracts were evaporated to dryness, reconstituted, and then analyzed by LC-MS/MS. The calibration range was 0.250-250 ng/mL for both analytes. If the criteria for either the calibration curve or the analytical QCs were not met, the analytical run was rejected. […]
property.name: concentration at 8 h (ng/mL)

> print(dat)
                                   molecule  measured.value
1  CCCCNc1cc(C(=O)N(Cc2ccccc2)Cc2ccccc2)cc(S(N)(=O)=O)c1Oc1ccccc1 [Bumetanide Dibenzylamide]            30.7

====

experiment: Pharmacokinetic study in cynomolgus monkeys after oral (nasogastric) gavage, sublingual and intravenous administration; assay type: in vivo; details: cynomolgus monkey, plasma, other: sublingual, 5 mg/kg, Plasma Bumetanide Dibenzylamide concentration, Mean, monkey, SL, dose column 5 mg/kg (title 30 mg/kg), Fourth Formulation (Form 2), 24.0 h, N=4
property.name: concentration at 24 h (ng/mL)

> print(dat)
                                   compound          property.name  measured.value
1  CCCCNc1cc(C(=O)N(Cc2ccccc2)Cc2ccccc2)cc(S(N)(=O)=O)c1Oc1ccccc1 [Bumetanide Dibenzylamide]  concentration at 24 h           0.248

====

experiment: Pharmacokinetic study in cynomolgus monkeys after oral (nasogastric) gavage, sublingual and intravenous administration; format: in vivo; details: cynomolgus, cynomolgus monkey, plasma, intravenous, 2 mg/kg, Plasma Bumetanide Dibenzylamide concentration, Median, monkey, dose column 2 mg/kg (title 30 mg/kg), Third Formulation (Form 4), 8.00 h, N=4
property.name: concentration at 8 h (ng/mL)

> print(dat)
                                   compound         property.name  measured.value
1  CCCCNc1cc(C(=O)N(Cc2ccccc2)Cc2ccccc2)cc(S(N)(=O)=O)c1Oc1ccccc1 [Bumetanide Dibenzylamide]  concentration at 8 h            27.2

====

assay: Pharmacokinetic study in cynomolgus monkeys after oral (nasogastric) gavage, sublingual and intravenous administration; type: in vivo; details: both sexes, cynomolgus monkey, plasma, oral, 30 mg/kg, Plasma Bumetanide Dibenzylamide concentration, Mean, monkey, NG 30 mg/kg, Second Formulation (Form 3), 24.00 h, N=4
property.name: concentration at 24 h (ng/mL)

> print(dat)
                                   compound  measured.value
1  CCCCNc1cc(C(=O)N(Cc2ccccc2)Cc2ccccc2)cc(S(N)(=O)=O)c1Oc1ccccc1 [Bumetanide Dibenzylamide]            13.6

====

assay: Pharmacokinetic study in cynomolgus monkeys after oral (nasogastric) gavage, sublingual and intravenous administration; type: in vivo; details: both sexes, cynomolgus monkey, plasma, oral, 30 mg/kg, Plasma Bumetanide Dibenzylamide concentration, Median, monkey, NG 30 mg/kg, First Formulation (Form 1), 1.00 h, N=4
property.name: concentration at 1 h (ng/mL)

> print(dat)
                                   compound         property.name  measured.value
1  CCCCNc1cc(C(=O)N(Cc2ccccc2)Cc2ccccc2)cc(S(N)(=O)=O)c1Oc1ccccc1 [Bumetanide Dibenzylamide]  concentration at 1 h            10.1

====

assay: Pharmacokinetic study in cynomolgus monkeys after oral (nasogastric) gavage, sublingual and intravenous administration; type: in vivo; settings: cynomolgus monkey, plasma, other: sublingual, 5 mg/kg, Plasma Bumetanide Dibenzylamide concentration, Mean, monkey, SL, dose column 5 mg/kg (title 30 mg/kg), Fourth Formulation (Form 2), 32.0 h, N=4
property.name: concentration at 32 h (ng/mL)

> print(dat)
                                   compound  measured.value
1  CCCCNc1cc(C(=O)N(Cc2ccccc2)Cc2ccccc2)cc(S(N)(=O)=O)c1Oc1ccccc1 [Bumetanide Dibenzylamide]          0.0803
